B1: CPEB3 Ribozyme (parent)
chain: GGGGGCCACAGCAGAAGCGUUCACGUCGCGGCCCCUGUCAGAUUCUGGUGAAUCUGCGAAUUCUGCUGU

variants of: B1; experiment: self-cleavage, relative activity (ratio to wild type); higher = more cleavage; co-transcriptional
readout: self-cleavage

[[record]]
chain = "GGGGGCCACAGCAGAAGCGUUCACGUCGCGGCCCCUGUCAGACUCUGGUGAAUCUGCGAAUUCUUCUGU [U43C G65U]"
numeric_value = 0.568

[[record]]
chain = "GGGGGCCACAGCAGAAGCAUUCACGUCGCGGCCCCUGUCAGAUUCUGGUGAAUCUGCGAAUUCUGCAGU [G19A U67A]"
numeric_value = 0.147

[[record]]
chain = "GGGGGCCACAGCACAAGAGUUCACGUCGCGGCCCCUGUCAGAUUCUGGUGAAUCUGCGAAUUCUGCUGU [G14C C18A]"
numeric_value = 0.149

[[record]]
chain = "GGGGGCCACAACAGAAGCGUUCACGUCGCGGCCCCUGUCAGAUUCUGGUGAAUCUGCGAAUUCUCCUGU [G11A G65C]"
numeric_value = 0.557

[[record]]
chain = "GGCGGCCACAGCAGAAGCGUUCACGUCGCGGCGCCUGUCAGAUUCUGGUGAAUCUGCGAAUUCUGCUGU [G3C C33G]"
numeric_value = 0.0238

[[record]]
chain = "GGGGGCCACAGCAGAAGCGUUCACGUCGCGGGCCCUGUCAGAUUCUGGUGAACCUGCGAAUUCUGCUGU [C32G U53C]"
numeric_value = 0.217

[[record]]
chain = "GGGGGCCACAGCAGAAGCGUUCACGUCGCGGCCCCUGUCAGAUUAUGGUGUAUCUGCGAAUUCUGCUGU [C45A A51U]"
numeric_value = 0.931

[[record]]
chain = "GGGGGCCACAUCAGAAGCGUUCACGUCGCGGACCCUGUCAGAUUCUGGUGAAUCUGCGAAUUCUGCUGU [G11U C32A]"
numeric_value = 0.773

[[record]]
chain = "GGGGGCCACAGCAGAAGCGUUCACGUCGCGCCCCCUGUCAGAUUCUGGUGAAUCUGCCAAUUCUGCUGU [G31C G58C]"
numeric_value = 0.179

[[record]]
chain = "GGGGGCCACAGGAGAAGCGUUCACGUGGCGGCCCCUGUCAGAUUCUGGUGAAUCUGCGAAUUCUGCUGU [C12G C27G]"
numeric_value = 0.1

[[record]]
chain = "GGGGGCCACAGCAGAAGCGUUCACGUCGCGGCCCCGGUCAGAUUCUGGUCAAUCUGCGAAUUCUGCUGU [U36G G50C]"
numeric_value = 0.231

[[record]]
chain = "GGUGGCCACAGCAGAAGUGUUCACGUCGCGGCCCCUGUCAGAUUCUGGUGAAUCUGCGAAUUCUGCUGU [G3U C18U]"
numeric_value = 0.0757

[[record]]
chain = "GGGGGCCACAGCAGAAGCGUUAACGUCGCGGCCCCUGUCAGAUUCUGGUGAAUCUGCGAAUUCUGCUCU [C22A G68C]"
numeric_value = 0.27

[[record]]
chain = "GGGGGCCACAGCAGAAGCGUUCACGUCGCGGCCCCUGUCUGAGUCUGGUGAAUCUGCGAAUUCUGCUGU [A40U U43G]"
numeric_value = 0.299

[[record]]
chain = "GGGGGCCACAGCAGAAGCGUUCACGUAGCGGCCCCUGUCAGAUUCUGGAGAAUCUGCGAAUUCUGCUGU [C27A U49A]"
numeric_value = 0.763

[[record]]
chain = "GGGGGCCACAGCAGAAGCGUUCACGUCGCGGCCCCUGUCAGAUUCUGGUGAACCUGCGAAUCCUGCUGU [U53C U62C]"
numeric_value = 0.513

[[record]]
chain = "GGGGGCCACAGCAGAAGCGUUCACGUCGCGGCCCAUGUCAGAUUCUGGUGAAUCUGCGAAUUCUGCUAU [C35A G68A]"
numeric_value = 0.358

[[record]]
chain = "GGGGGCCACAGCUGAAGCGUUCACGUCGCGGCCCCUAUCAGAUUCUGGUGAAUCUGCGAAUUCUGCUGU [A13U G37A]"
numeric_value = 0.184

[[record]]
chain = "GGGGGCCACAGCAGAAGCGUUCGCGUCGCGGCCCCUGUCAGAUUCUGGUUAAUCUGCGAAUUCUGCUGU [A23G G50U]"
numeric_value = 0.971

[[record]]
chain = "GGGGGCCACAGCAGAAGCGUUAACGUCGCGGCCCCUGUCAGAUUCUGGUGAAUCUGCGAAUCCUGCUGU [C22A U62C]"
numeric_value = 0.17

[[record]]
chain = "GGGGGCCACAGCAGAAGCGUUCACGUCGCGGCCGCUGUCAGAUUCCGGUGAAUCUGCGAAUUCUGCUGU [C34G U46C]"
numeric_value = 0.625

[[record]]
chain = "GGGGGCCAAAGCAGAAGCGUUCACGUCGCGGCCCCUGUCAGAUUCUGGUUAAUCUGCGAAUUCUGCUGU [C9A G50U]"
numeric_value = 0.999

[[record]]
chain = "GGGGGCCACAGCAGAAGCGUUCACGUCGCGGCCCCUGUCAGAUUCUGGAGAAUCUGCGAAUUCUUCUGU [U49A G65U]"
numeric_value = 0.821

[[record]]
chain = "GGGGGCCACAGCCGAAUCGUUCACGUCGCGGCCCCUGUCAGAUUCUGGUGAAUCUGCGAAUUCUGCUGU [A13C G17U]"
numeric_value = 0.125

[[record]]
chain = "GGGGGCCACAGCAGAAGCGUUCACGUCGCAGCCCCUGUCAGAUUCUGGUGAAUCUGCGAAUUCUUCUGU [G30A G65U]"
numeric_value = 0.436

[[record]]
chain = "UGGGGCCACAGCAGAAGCGUUCACGUCUCGGCCCCUGUCAGAUUCUGGUGAAUCUGCGAAUUCUGCUGU [G1U G28U]"
numeric_value = 0.0723

[[record]]
chain = "GGGGGCCACAGCAGAAGCGUUCACGACGCUGCCCCUGUCAGAUUCUGGUGAAUCUGCGAAUUCUGCUGU [U26A G30U]"
numeric_value = 0.254

[[record]]
chain = "GGGAGCCACAGCAGAAGCGUUCACGUCGCGGCCCCUGUCAGAUUCGGGUGAAUCUGCGAAUUCUGCUGU [G4A U46G]"
numeric_value = 0.841

[[record]]
chain = "GGGGGCCACAGCAGAAGCGUUCACGUCGCGGCCCCUGUCAGAUGCUGGUGAAUCUGCGAAUACUGCUGU [U44G U62A]"
numeric_value = 0.908

[[record]]
chain = "GGGGGCCACAGCAAAAGCGUUCACGUCGCGGCCCCUGUCAGAUUCUGGUGAAUGUGCGAAUUCUGCUGU [G14A C54G]"
numeric_value = 0.312

[[record]]
chain = "GGGGGCCACAGCAGAAGCGUUCACGUAGCGGCCCCUGUCAGAUUCUGCUGAAUCUGCGAAUUCUGCUGU [C27A G48C]"
numeric_value = 0.652

[[record]]
chain = "GGGGGCCCCAGCAGAAGCGUUCACGUCGCGGCCCCUGUCAGAUUGUGGUGAAUCUGCGAAUUCUGCUGU [A8C C45G]"
numeric_value = 0.984

[[record]]
chain = "GGGGGCCACAGCAGAAGCGUUCACGACGCGUCCCCUGUCAGAUUCUGGUGAAUCUGCGAAUUCUGCUGU [U26A G31U]"
numeric_value = 0.27

[[record]]
chain = "GGGGGCCAUAGCAGAAGCGUUCACGUCGUGGCCCCUGUCAGAUUCUGGUGAAUCUGCGAAUUCUGCUGU [C9U C29U]"
numeric_value = 0.874

[[record]]
chain = "GGGGGCGACAGCAGAAGCGUGCACGUCGCGGCCCCUGUCAGAUUCUGGUGAAUCUGCGAAUUCUGCUGU [C7G U21G]"
numeric_value = 0.119

[[record]]
chain = "GGGGGCCACAGCAGAAGCGUUCACUUAGCGGCCCCUGUCAGAUUCUGGUGAAUCUGCGAAUUCUGCUGU [G25U C27A]"
numeric_value = 0.213

[[record]]
chain = "GGGGGCCACAGCAGAAGCGUUCACGUCGCGGCCCCUGUCAGAAUCUGGUGAAUCCGCGAAUUCUGCUGU [U43A U55C]"
numeric_value = 0.289

[[record]]
chain = "GGGGGCCACAGCAGAAGCGUUCACGUCGCGGCCCCUGGGAGAUUCUGGUGAAUCUGCGAAUUCUGCUGU [U38G C39G]"
numeric_value = 1.01

[[record]]
chain = "GGGGGCCACAGCAGAAGCGUUCUCGUCGCGACCCCUGUCAGAUUCUGGUGAAUCUGCGAAUUCUGCUGU [A23U G31A]"
numeric_value = 0.977

[[record]]
chain = "GGGGGCCACAGCAGAAGCGUUCACGUCGCGGCCCCUGUCAGAUUCAGGUGAAUCUGCGAAUUCUGCUGG [U46A U69G]"
numeric_value = 1.03

[[record]]
chain = "GGGGGCCACAGCAGAAGCGUUCACGUCGCGGCCCCUGUCAGAUUGUGGUUAAUCUGCGAAUUCUGCUGU [C45G G50U]"
numeric_value = 0.961

[[record]]
chain = "GGGGGCCACAGCAGAAGCGUUAACGUCGCGGCCCCUGUCAGAUUCUGGUGCAUCUGCGAAUUCUGCUGU [C22A A51C]"
numeric_value = 0.176

[[record]]
chain = "GGGGGCCACAGCAGAAGCGUGCACAUCGCGGCCCCUGUCAGAUUCUGGUGAAUCUGCGAAUUCUGCUGU [U21G G25A]"
numeric_value = 0.284

[[record]]
chain = "GGGGGCCACAGCAGAAGCGUUCACGUCGCGGCCCCUGUCUGAUUCUAGUGAAUCUGCGAAUUCUGCUGU [A40U G47A]"
numeric_value = 0.885

[[record]]
chain = "GGGGGCCACAGCAGAAGCGUUCACGUCGGGCCCCCUGUCAGAUUCUGGUGAAUCUGCGAAUUCUGCUGU [C29G G31C]"
numeric_value = 0.13

[[record]]
chain = "GGGGGCCACAGCAGAAGUGUUCACGUCGCGGCCCCUGUCAGAUUCUGGUGAAUCUGCGAAUUCUGGUGU [C18U C66G]"
numeric_value = 0.341

